Biological target: recombinant human FLAP protein (Homo sapiens, UniProt P20292)
Construct: made in house; host or cells: Sf9 insect cells (100,000×g membrane pellet used)
Sequence (P20292 1-161): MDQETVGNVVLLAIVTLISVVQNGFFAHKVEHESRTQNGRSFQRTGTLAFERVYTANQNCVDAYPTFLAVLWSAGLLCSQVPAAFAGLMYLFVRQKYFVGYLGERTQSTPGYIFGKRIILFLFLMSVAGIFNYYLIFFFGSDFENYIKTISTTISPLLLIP
Experiment: FLAP binding assay (SPA, displacement of [125I]L-691,831)
Conditions: membranes of sf9 cells expressing recombinant human FLAP; [125I]L-691,831 probe; read-out: FLAP binding IC50
readout kind: pIC50
Notebook: values listed as pIC50 are -log10 of the concentration (mol/L).

molecule Cc1ccc(-c2nc(C(C)(c3ccc(-c4cnc(N)nc4)cc3)C(C)C)no2)c(O)n1 (stereo not shown) , pIC50 observed: 8.48

molecule Cn1cc(-c2nc(C(C)(c3ccc(-c4cncc(OCc5ccccc5)c4)cc3)C3CC3)no2)cn1 (stereo not shown) , pIC50 observed: 7.66

molecule COCCNc1nc(C(C)(c2ccc(-c3cnc(N)nc3)cc2)C(C)C)no1 (stereo not shown) , pIC50 observed: 7.96

molecule CN(C)C(=O)Cn1cc(-c2nc(C(C)(c3ccc(-c4cnc(N)nc4)cc3)C3CC3)no2)cn1 (stereo not shown) , pIC50 observed: 8.96
